System: P388/ADR cells
Test: Drug cytotoxicity with or without 10 μM modulator, P388/ADR cells (Table V)
Details: Mus musculus, P388/ADR, read-out: IC50 (EtOH)
OBSERVABLE: pIC50
Lab note — pIC50 values are minus log10 of concentrations in M.

Example entries begin here.
| COMPOUND | ASSAY_RESULT |
| --- | --- |
| COc1cccc2c1C(=O)c1c(O)c3c(c(O)c1C2=O)C[C@@](O)(C(=O)CO)C[C@@H]3O[C@H]1C[C@H](N)[C@H](O)[C@H](C)O1 [Doxorubicin, reference compound] | 4.57 |
| CC(=O)O[C@H]1C(=O)[C@@]2(C)[C@H]([C@H](OC(=O)c3ccccc3)[C@]3(O)C[C@H](OC(=O)[C@H](O)[C@@H](NC(=O)c4ccccc4)c4ccccc4)C(C)=C1C3(C)C)[C@]1(OC(C)=O)CO[C@@H]1C[C@@H]2O [Taxol, reference compound] | 5.78 |
| CC[C@]1(O)C[C@H]2CN(CCc3c([nH]c4ccccc34)[C@@](C(=O)OC)(c3cc4c(cc3OC)N(C=O)[C@H]3[C@@](O)(C(=O)OC)[C@H](OC(C)=O)[C@]5(CC)C=CCN6CC[C@]43[C@@H]65)C2)C1 [Vincristine, vincristine, reference compound] | 6.82 |

What does the data say about its pIC50? Entry: CC[C@]1(O)C[C@@H]2CN(CCc3c([nH]c4ccccc34)[C@@](C(=O)OC)(c3cc4c(cc3OC)N(C)[C@H]3[C@@](O)(C(=O)OC)[C@H](OC(C)=O)[C@]5(CC)C=CCN6CC[C@]43[C@@H]65)C2)C1 [Vinblastine, vinblastine, reference compound]
7.55

I have this compound here, O=c1[nH]cc(F)c(=O)[nH]1 [5-Fluorouracil, 5-fluorouracil, reference compound] , and I need its recorded pIC50.
6.66

All figures here come from patent US6693112B2.
